- System: SW-620
- procedure.details: NCI tumour cell line growth inhibition, 48 h
Calls of active or inactive are those of the source. Rule as the data show it: active = GI50 up to about 1.1 µM and inactive = higher.
measurement.label: GI50

1) Cc1cc(NS(=O)(=O)c2ccc(NC(=O)c3cccc4c(Nc5ccc(S(=O)(=O)Nc6cc(C)on6)cc5)c5ccc(Cl)cc5nc34)cc2)no1    76.7 µM (inactive)
2) CCN(CC)C(=S)SC(=S)N(CC)CC    28.6 µM (inactive)
3) O=C1CSC2(CC(/C=C/c3cccs3)=NN2c2cccc(S(=O)(=O)O)c2)N1c1nc2ccccc2s1 (centres undefined)    > 100 µM (inactive)
4) COc1cc2c(cc1OCCCCCOc1cc3c(cc1OC)C(=O)N1CCC[C@H]1CN3)N=C[C@@H]1CCCN1C2=O    4.25 µM (inactive)
